- run.description: The drug is tested on the gut metagenome community of A-10 with ENA study accession number: PRJEB31790 for biotransformation under microaerobic condition. The drug concentrations were measured over 7 timepoints collected between 0 and 12 hours of incubation by liquid-chromatography-coupled mass spectrometry (LC–MS)
- Format: ADME
- Parameters: dose 5 uM, timepoint 0, 0.75, 1.5, 3, 6, 9, 12 hours
- protocol.conditions: 5 µM
observation.type: Bacterial Biotransformation

Examples from the recorded data:
[
  {
    "compound": "C=CC[C@@H]1/C=C(\\C)C[C@H](C)C[C@H](OC)[C@H]2O[C@@](O)(C(=O)C(=O)N3CCCC[C@H]3C(=O)O[C@H](/C(C)=C/[C@@H]3CC[C@@H](O)[C@H](OC)C3)[C@H](C)[C@@H](O)CC1=O)[C@H](C)C[C@@H]2OC.O",
    "result": "Compound metabolized"
  },
  {
    "compound": "CCOC(=O)[C@H](CCc1ccccc1)N[C@@H](C)C(=O)N1[C@H](C(=O)O)C[C@@H]2CCC[C@@H]21",
    "result": "Compound NOT metabolized"
  },
  {
    "compound": "C[C@]12C=CC(=O)C=C1CC[C@@H]1[C@@H]2C(=O)C[C@@]2(C)[C@H]1CC[C@]2(O)C(=O)CO",
    "result": "Compound metabolized"
  },
  {
    "compound": "CO[C@H]1C[C@@H]2CC[C@@H](C)[C@@](O)(O2)C(=O)C(=O)N2CCCC[C@H]2C(=O)O[C@H]([C@H](C)C[C@@H]2CC[C@@H](O)[C@H](OC)C2)CC(=O)[C@H](C)/C=C(\\C)[C@@H](O)[C@@H](OC)C(=O)[C@H](C)C[C@H](C)/C=C/C=C/C=C/1C",
    "result": "Compound NOT metabolized"
  },
  {
    "compound": "CC(C)NCC(O)COc1ccc(CC(N)=O)cc1 (centres undefined)",
    "result": "Compound NOT metabolized"
  },
  {
    "compound": "COc1ccc([C@@H]2Sc3ccccc3N(CCN(C)C)C(=O)[C@@H]2OC(C)=O)cc1",
    "result": "Compound metabolized"
  }
]

Task: Fill blank: measured Bacterial Biotransformation of the compound `COc1c(C)c2c(c(O)c1C/C=C(\C)CCC(=O)O)C(=O)OC2` is ____.
Result: Compound NOT metabolized

Task: And the next one, COc1c(C)c2c(c(O)c1C/C=C(\C)CCC(=O)OCCN1CCOCC1)C(=O)OC2 [MYCOPHENOLATE MOFETIL] ?
Result: Compound metabolized

Task: And the next one, `C[C@]12C=CC(=O)C=C1CC[C@@H]1[C@@H]2[C@@H](O)C[C@@]2(C)[C@H]1CC[C@]2(O)C(=O)CO` ?
Result: Compound metabolized

Task: And the next one, `CNC(=C[N+](=O)[O-])NCCSCc1ccc(CN(C)C)o1` ?
Result: Compound NOT metabolized

Task: And the next one, `CCC(C)(C)C(=O)O[C@H]1C[C@@H](C)C=C2C=C[C@H](C)[C@H](CC[C@@H]3C[C@@H](O)CC(=O)O3)[C@H]21` ?
Result: Compound NOT metabolized

Task: And the next one, C[C@]12CCC(=O)C=C1CC[C@@H]1[C@@H]2[C@@H](O)C[C@@]2(C)[C@H]1CC[C@]2(O)C(=O)CO [HYDROCORTISONE] ?
Result: Compound metabolized

Task: And the next one, CN(Cc1cnc2nc(N)nc(N)c2n1)c1ccc(C(=O)N[C@@H](CCC(=O)O)C(=O)O)cc1 [METHOTREXATE] ?
Result: Compound metabolized

Task: And the next one, `Cn1cnc([N+](=O)[O-])c1Sc1ncnc2nc[nH]c12` ?
Result: Compound NOT metabolized
